system: OVCAR-4; test: NCI tumour cell line growth inhibition, 48 h
Calls of active or inactive are those of the source. Cut-off read from the data, not from the text of the source: active = GI50 up to about 1.1 µM and inactive = higher.
Choose the fitting class; nothing outside active, inactive is accepted.

Use these answered entries as a reference point.
COc1c2ccoc2nc2c(OC)c(OCC(O)C(C)(C)O)ccc12 (stereo not drawn)    inactive
COC(=O)[C@]12CCC(C)(C)C[C@H]1[C@H]1C(=O)C=C3[C@@]4(C)C=C(C#N)C(=O)C(C)(C)[C@@H]4CC[C@@]3(C)[C@]1(C)CC2    active

Attention now shifts to the item below.
Could you kindly confirm the outcome this assay logged for CC1=NN(c2nc(N)nc(/C(C#N)=C\c3ccc([N+](=O)[O-])s3)n2)C(C)(C)C1 ?
inactive

* * *

system: PC-3; experiment: NCI tumour cell line growth inhibition, 48 h
Active and inactive are the calls of the source. Cut-off read from the data, not from the text of the source: active = GI50 up to about 1.1 µM and inactive = higher.
REPORTED_METRIC: GI50

Solved cases (3 shown):
COc1cc(C2S/C(=C/c3ccccc3)C(=O)N2c2ccc([N+](=O)[O-])cc2)cc(OC)c1OC (centres undefined)    > 100 µM (inactive)
Cc1cc(C)c2c(n1)S(=O)(=O)N(CCCN1CCN(c3cccc(Cl)c3)CC1)C(C(=O)c1ccc(Br)cc1)=C2O    22 µM (inactive)
NC(N)=NCc1ccc2c(c1)OCO2    > 100 µM (inactive)

Please indicate GI50 recorded for O=[As](O)(O)c1ccc2nc3cc([As](=O)(O)O)ccc3nc2c1
> 100 µM (inactive)

Consider the compound Cc1ccc(Nc2nnc3n2S(=O)(=O)c2cc(C)c(Cl)cc2S3)cc1 and give its recorded GI50.
4.39 µM (inactive)

For the compound O=c1[nH]c2ccc(CC(=S)N3CCN(c4ccccc4)CC3)cc2o1 , give its reported GI50.
> 100 µM (inactive)

* * *

The entries below come with measured GI50 values attached.
system: HCT-116; test: NCI tumour cell line growth inhibition, 48 h
Active and inactive are the calls of the source. Cut-off read from the data, not from the text of the source: active = GI50 up to about 1.1 µM and inactive = higher.

Cn1ncnc1CCc1ccccc1    > 100 µM (inactive)

Look up and state reported GI50 for O=C(CCNC12CC3CC(CC(C3)C1)C2)c1ccccc1
15.2 µM (inactive)

Return GI50 for the following compound: CCOC1NC(=O)c2ccccc21 (centres undefined)
> 100 µM (inactive)

Report GI50, nothing else, for this compound: O=C(Nc1ccc(Cl)cc1)C(=O)C(C(=O)c1ccccc1-c1ccccc1)C1OC(=O)c2ccccc21 (centres undefined)
18.2 µM (inactive)

* * *

test system: NCI/ADR-RES; test: NCI tumour cell line growth inhibition, 48 h
Activity calls are given as the source filed them. No stated cut-off is given here; in the data, active = GI50 up to about 1.1 µM and inactive = higher.
REPORTED_METRIC: GI50

O=C1Nc2ccc(Br)cc2/C1=N/c1ccc2c(c1)OCO2    27.5 µM (inactive)
c1ccc2c(c1)c1c3c(c4c(n32)=NCCN4)CCC1    27.9 µM (inactive)
CCCCCC/C=C\CCCCCCCCCC1=C(CN2CCN(C)CC2)C(=O)C=C(OC)C1=O    3.58 µM (inactive)
CCOC(=O)c1cc2cc([N+](=O)[O-])ccc2oc1=O    > 100 µM (inactive)

// Input: CCOc1cc(-c2nc3cc(F)ccc3s2)ccc1O . Output its GI50 only.
23 µM (inactive)

Specify GI50 for O/N=C\c1c2c(cc3c1CCC3)CCC2 and stop.
> 100 µM (inactive)

* * *

tested on: OVCAR-5; assay: NCI tumour cell line growth inhibition, 48 h
The source made the active and inactive calls. No stated cut-off is given here; in the data, active = GI50 up to about 1.1 µM and inactive = higher.
REPORTED_METRIC: GI50

COc1ccc(N[S+]([O-])c2c(C)cc(C)cc2C)cc1 (stereo unspecified)    > 100 µM (inactive)
C[C@]12CC[C@H]3[C@@H](CC=C4C[C@@H](N5CCCC5)CC[C@@]43C)[C@@H]1C[C@H](N1CCOCC1)[C@@H]2O    > 100 µM (inactive)
O=C1COc2cc(N3CCN(c4cccc(C(F)(F)F)c4)CC3)ccc2N1    > 100 µM (inactive)
CC(C)(C)c1ccccc1NS(=O)(=O)c1ccccc1    > 100 µM (inactive)
C=C1C(=O)OC2/C=C(\C(=O)O)CC/C=C(\C)CC(OC(=O)/C=C(\C)CC)C12 (stereo unspecified)    13.5 µM (inactive)
N/N=C1/C(=N/O)CCc2nonc21    > 100 µM (inactive)

Find GI50 for N/N=C1\c2ccccc2C2/C(=N\N)c3ccccc3C12 (stereo unspecified) on OVCAR-5 and write it down.
> 100 µM (inactive)

For OVCAR-5, give GI50 of the listed compound: Oc1c(OCc2nnc(CCCCCCCCc3nnc(COc4ccc5ccccc5c4O)o3)o2)ccc2ccccc12
> 100 µM (inactive)

# return GI50 for COC1=C(C)C(=O)c2c(cc3c(c2O)C(C)(CCC=C(C)C)C(C)O3)C1=O (stereo unspecified) , test system: OVCAR-5
> 100 µM (inactive)

Report the value of GI50 obtained on OVCAR-5 for COC(=O)C(=O)C(C(=O)C=C(C)C)C(=O)C(=O)Nc1ccc(Cl)cc1C (stereo unspecified) .
> 100 µM (inactive)

Enter recorded GI50 with OVCAR-5 for CC1=NNC(=O)C1C(CC(=O)c1c[nH]c2ccccc12)C(=O)O (stereo unspecified) here.
> 100 µM (inactive)
